Recorded solubility kinetic values for a group of compounds are listed next.
details: buffer; pH 7.4; 200.0 µM
Give the value in µg/mL but do not write µg/mL after it.

Examples with answers:
>  <compound>
O=C(NCCc1c[nH]c2ccccc12)c1ccccc1

>  <solubility kinetic [µg/mL]>
34.7

$$$$
>  <compound>
CC(C)(C)c1ccc(COn2ccnc2)cc1

>  <solubility kinetic [µg/mL]>
27.1

$$$$
>  <compound>
CC(=O)Cn1c(=O)oc2ccccc21

>  <solubility kinetic [µg/mL]>
27.1

$$$$
>  <compound>
CC(CCN1CCN(CCO)CC1)c1ccccc1 (stereo not given)

>  <solubility kinetic [µg/mL]>
23.1

$$$$
>  <compound>
COc1cc(OC)c(C(=O)OCC(=O)Nc2ccc(N3CCOCC3)cc2)cc1OC

>  <solubility kinetic [µg/mL]>
6.5

$$$$

Incoming: What value of solubility kinetic has been recorded for this entry: CCC(C(=O)N1CCN(c2ncccn2)CC1)c1ccccc1 (stereo not given)
Outgoing: 41.7

Incoming: What value of solubility kinetic has been recorded for this entry: `COc1cccc(CNC(=O)N2CCN(c3ccccc3)CC2)c1`
Outgoing: 20.5

Incoming: What value of solubility kinetic has been recorded for this entry: `O=C(COC(=O)c1ccc([N+](=O)[O-])cc1)NC12CC3CC(CC(C3)C1)C2`
Outgoing: 3.3

Incoming: What value of solubility kinetic has been recorded for this entry: Cc1[nH]c2ccccc2c1C(=O)CN1CCCC(C)C1 (stereo not given)
Outgoing: 40.5

Incoming: What value of solubility kinetic has been recorded for this entry: `CC(=O)Nc1c(C(=O)Nc2ccc3c(c2)OCO3)oc2ccccc12`
Outgoing: 3.2

Entry source: PubChem BioAssay AID1996
